Papp at 200 µM overview
EXPERIMENT NOTES: Effective permeability across artificial membrane at 200 uM by PAMPA using HPLC/MS method
Assay type: ADME
TEST CONDITIONS: read-out: permeability
Numbered stars: 1 amine (or outer) side, 2 acyl side, 3 side chain; on linkers, the order of the positions; unused ones are H or OH. Square brackets hold non-standard residues; d marks the D form. Peptide text beside a SMILES is read from it. * marks the point of attachment. ξ: configuration not given here. 2Nal = N[C@@H](Cc1ccc2ccccc2c1)C(=O)O; NMeF = CN[C@@H](Cc1ccccc1)C(=O)O; ξNip = O=C(C1CCCN([*:1])C1)[*:2]; X1 = NCC(=O)CCC(=O)*
Report as a plain number; the unit ×10⁻⁶ cm/s is understood.

CN(C(=O)[C@H](Cc1ccc2ccccc2c1)NC(=O)C1CCCNC1)[C@@H](Cc1ccccc1)C(=O)N(C)[C@@H](Cc1ccccc1)C(=O)N(C)[C@@H](Cc1ccccc1)C(N)=O (some centres not stated) (ξNip-[2Nal][NMeF][NMeF][NMeF]-NH2) : 1.1

For the next question, use this compound.
Sample CN(C(=O)CCC(=O)CN)[C@@H](Cc1ccccc1)C(=O)N(C)[C@@H](Cc1ccccc1)C(=O)N(C)[C@@H](Cc1ccccc1)C(=O)N(C)[C@@H](Cc1ccccc1)C(N)=O (X1-[NMeF][NMeF][NMeF][NMeF]-NH2) — what was its Papp at 200 µM?
1

----------
EXPERIMENT NOTES: Permeability across artificial membrane assessed as compound transport at 200 uM after 4 hrs by PAMPA using HPLC/MS method
Assay type: ADME
Square brackets hold non-standard residues; d marks the D form. Peptide text beside a SMILES is read from it. 2Nal = N[C@@H](Cc1ccc2ccccc2c1)C(=O)O; NMeF = CN[C@@H](Cc1ccccc1)C(=O)O; GABA = NCCCC(=O)O
The following compounds are listed with their measured Activity values.
Answer format: numeric, % implied, no suffix.

What does the data say about its Activity? Entry: NCC(=O)CCC(=O)O
0

If you can, please state the reported Activity value of NCCCC(=O)O .
0

For CN(C(=O)[C@H](Cc1ccc2ccccc2c1)NC(=O)CCCN)[C@@H](Cc1ccccc1)C(=O)N(C)[C@@H](Cc1ccccc1)C(=O)N(C)[C@@H](Cc1ccccc1)C(N)=O (H-[GABA][2Nal][NMeF][NMeF][NMeF]-NH2) , what is its reported Activity?
0.4

----------
EXPERIMENT NOTES: Apparent permeability in BBMEC assessed as membrane retention
Assay type: ADME, cell membranes, Bos taurus
TEST CONDITIONS: cattle
Numbered stars: 1 amine (or outer) side, 2 acyl side, 3 side chain; on linkers, the order of the positions; unused ones are H or OH. Square brackets hold non-standard residues; d marks the D form. Peptide text beside a SMILES is read from it. * marks the point of attachment. ξ: configuration not given here. 2Nal = N[C@@H](Cc1ccc2ccccc2c1)C(=O)O; NMeF = CN[C@@H](Cc1ccccc1)C(=O)O; ξNip = O=C(C1CCCN([*:1])C1)[*:2]; X1 = NCC(=O)CCC(=O)*
MEASURED ENDPOINT: Activity (%)
Form entry: value (%) — number only.

Reference set, count: 4
NC(=O)N1c2ccccc2C=Cc2ccccc21 [CARBAMAZEPINE] : 67.5
CN(C(=O)C1CCCNC1)[C@@H](Cc1ccccc1)C(=O)N(C)[C@@H](Cc1ccccc1)C(=O)N(C)[C@@H](Cc1ccccc1)C(=O)N(C)[C@@H](Cc1ccccc1)C(N)=O (stereo partly specified) (ξNip-[NMeF][NMeF][NMeF][NMeF]-NH2) : 74
CN(C(=O)CCC(=O)CN)[C@@H](Cc1ccccc1)C(=O)N(C)[C@@H](Cc1ccccc1)C(=O)N(C)[C@@H](Cc1ccccc1)C(=O)N(C)[C@@H](Cc1ccccc1)C(N)=O (X1-[NMeF][NMeF][NMeF][NMeF]-NH2) : 50.7
CN(C(=O)[C@H](Cc1ccc2ccccc2c1)NC(=O)C1CCCNC1)[C@@H](Cc1ccccc1)C(=O)N(C)[C@@H](Cc1ccccc1)C(=O)N(C)[C@@H](Cc1ccccc1)C(N)=O (stereo partly specified) (ξNip-[2Nal][NMeF][NMeF][NMeF]-NH2) : 83.8

Please give the measured Activity for this compound: CC(C)NCC(O)COc1cccc2ccccc12 (stereo unspecified) [PROPRANOLOL]
63

Consider the compound shown here: Cn1c(=O)c2c(ncn2C)n(C)c1=O [CAFFEINE] What is its recorded Activity?
67.4

----------
EXPERIMENT NOTES: Permeability across artificial membrane assessed as compound transport at 200 uM after 4 hrs by PAMPA using HPLC/MS method
Type: ADME
MEASURED ENDPOINT: Activity (%)
Could you give me the number in %? Just the number is fine.

Return reported Activity; argument: NC(=O)N1c2ccccc2C=Cc2ccccc21 [CARBAMAZEPINE]
19.3

----------
Recorded Activity for the following molecules
EXPERIMENT NOTES: Apparent permeability in BBMEC assessed as compound transport after 2 hrs
Assay type: ADME, Bos taurus
TEST CONDITIONS: cattle
Numbered stars: 1 amine (or outer) side, 2 acyl side, 3 side chain; on linkers, the order of the positions; unused ones are H or OH. Square brackets hold non-standard residues; d marks the D form. Peptide text beside a SMILES is read from it. * marks the point of attachment. ξ: configuration not given here. 2Nal = N[C@@H](Cc1ccc2ccccc2c1)C(=O)O; NMeF = CN[C@@H](Cc1ccccc1)C(=O)O; ξNip = O=C(C1CCCN([*:1])C1)[*:2]; X1 = NCC(=O)CCC(=O)*
Output spec: scalar in %, unitless text.

Check out these entries, answers already filled in.
Cn1c(=O)c2c(ncn2C)n(C)c1=O [CAFFEINE] : 20.6
NC(=O)N1c2ccccc2C=Cc2ccccc21 [CARBAMAZEPINE] : 20
CC(C)NCC(O)COc1cccc2ccccc12 (stereo unspecified) [PROPRANOLOL] : 21.2

Can you share its Activity? I mean this molecule: CN(C(=O)C1CCCNC1)[C@@H](Cc1ccccc1)C(=O)N(C)[C@@H](Cc1ccccc1)C(=O)N(C)[C@@H](Cc1ccccc1)C(=O)N(C)[C@@H](Cc1ccccc1)C(N)=O (stereo partly specified) (ξNip-[NMeF][NMeF][NMeF][NMeF]-NH2)
7.9

For the molecule CN(C(=O)CCC(=O)CN)[C@@H](Cc1ccccc1)C(=O)N(C)[C@@H](Cc1ccccc1)C(=O)N(C)[C@@H](Cc1ccccc1)C(=O)N(C)[C@@H](Cc1ccccc1)C(N)=O (X1-[NMeF][NMeF][NMeF][NMeF]-NH2) , what Activity is on record?
17.8

Need Activity, item CN(C(=O)[C@H](Cc1ccc2ccccc2c1)NC(=O)C1CCCNC1)[C@@H](Cc1ccccc1)C(=O)N(C)[C@@H](Cc1ccccc1)C(=O)N(C)[C@@H](Cc1ccccc1)C(N)=O (stereo partly specified) (ξNip-[2Nal][NMeF][NMeF][NMeF]-NH2)
4.1

----------
EXPERIMENT NOTES: Effective permeability across artificial membrane at 200 uM by PAMPA using HPLC/MS method
Assay type: ADME
TEST CONDITIONS: read-out: permeability
Numbered stars: 1 amine (or outer) side, 2 acyl side, 3 side chain; on linkers, the order of the positions; unused ones are H or OH. Square brackets hold non-standard residues; d marks the D form. Peptide text beside a SMILES is read from it. ξ: configuration not given here. 2Nal = N[C@@H](Cc1ccc2ccccc2c1)C(=O)O; NMeF = CN[C@@H](Cc1ccccc1)C(=O)O; ξNip = O=C(C1CCCN([*:1])C1)[*:2]; GABA = NCCCC(=O)O
MEASURED ENDPOINT: Papp at 200 µM (×10⁻⁶ cm/s)
Hi! Could you send only the number? It should be in ×10⁻⁶ cm/s, unit omitted.

Known results for compounds:
CN(C(=O)[C@H](Cc1ccc2ccccc2c1)NC(=O)CCCN)[C@@H](Cc1ccccc1)C(=O)N(C)[C@@H](Cc1ccccc1)C(=O)N(C)[C@@H](Cc1ccccc1)C(N)=O (H-[GABA][2Nal][NMeF][NMeF][NMeF]-NH2) : 0.2
NC(=O)N1c2ccccc2C=Cc2ccccc21 [CARBAMAZEPINE] : 11.5

Which value of Papp at 200 µM has been reported for CN(C(=O)CCCN)[C@@H](Cc1ccccc1)C(=O)N(C)[C@@H](Cc1ccccc1)C(=O)N(C)[C@@H](Cc1ccccc1)C(=O)N(C)[C@@H](Cc1ccccc1)C(N)=O (H-[GABA][NMeF][NMeF][NMeF][NMeF]-NH2) in the records?
0.4

What does the data say about its Papp at 200 µM? Entry: CN(C(=O)C1CCCNC1)[C@@H](Cc1ccccc1)C(=O)N(C)[C@@H](Cc1ccccc1)C(=O)N(C)[C@@H](Cc1ccccc1)C(=O)N(C)[C@@H](Cc1ccccc1)C(N)=O (some centres undefined) (ξNip-[NMeF][NMeF][NMeF][NMeF]-NH2)
1.4
